Where a name gives a salt, the structure may show the parent alone.
Measured Metric: melting point

> print(dat)
                                    molecule  measured.metric             result
 1  COc1cccc(C(NC(=O)c2cccc(C(F)(F)F)c2Cl)C23CC(CN2)C3)c1 (racemic) (as salt: HCl)    melting point      143 to 144 °C
 2  CCCN1CC2CC1(C(NC(=O)c1cc(Br)c(Cl)cc1N)c1ccccc1)C2 (racemic) (as salt: HCl)    melting point      153 to 154 °C
 3  CCN1CC2CC1(C(NC(=O)c1cccc(C(F)(F)F)c1Cl)c1ccccc1)C2 (single isomer, unassigned; (+)) (as salt: HCl)    melting point      257 to 259 °C
 4  Cc1cccc(C(NC(=O)c2c(Cl)ccc(C(F)(F)F)c2Cl)C23CC(CN2)C3)c1 (racemic) (as salt: HCl)    melting point      146 to 147 °C
 5  Cl.O=C(NC(c1ccccc1)C12CC(CN1)C2)c1cc(C(F)(F)F)ccc1Cl (racemic)    melting point  162.5 to 163.5 °C
 6  O=C(NC(c1ccccc1)C12CC(CN1CC(F)(F)F)C2)c1c(Cl)ccc(C(F)(F)F)c1Cl (racemic)    melting point        82 to 83 °C
 7  CCN1CC2CC1(C(NC(=O)c1cccc(C(F)(F)F)c1Cl)c1ccccc1)C2.Cl (racemic)    melting point      152 to 155 °C
 8  C=CCN1CC2CC1(C(NC(=O)c1cc(Br)c(Cl)cc1N)c1ccccc1)C2 (racemic)    melting point        66 to 67 °C
 9  Cc1cccc(C)c1C(=O)NC(c1ccccc1)C12CC(CN1)C2 (racemic) (as salt: HCl)    melting point  273.5 to 274.5 °C
10  Cc1c(C(=O)NC(c2ccccc2)C23CC(CN2)C3)cccc1C(F)(F)F (racemic)    melting point      146 to 147 °C
11  O=C(NC(c1ccccc1)C12CC(CN1)C2)c1cccc(C(F)(F)F)c1Cl (single isomer, unassigned; (+)) (as salt: HCl) [Compound 14]    melting point      160 to 170 °C
12  CCS(=O)(=O)c1cc(C(=O)NC(c2ccccc2)C23CC(CN2)C3)c(OC)cc1Cl (racemic) (as salt: HCl)    melting point      232 to 233 °C
